Measured relative viability of individual entries
# Tested on: PC-14
# METHOD_SUMMARY: relative viability (nuclei count vs DMSO), 5 days (fraction); higher = more cells survive
# EXPERIMENTAL_CONDITIONS: first compound 0.01 µM
REPORTED_METRIC: relative viability

>  <COMPOUND>
Cc1cn(-c2cc(NC(=O)c3ccc(C)c(Nc4nccc(-c5cccnc5)n4)c3)cc(C(F)(F)F)c2)cn1 [Nilotinib] + CC(C)C[C@H](NC(=O)[C@H](Cc1ccccc1)NC(=O)c1cnccn1)B(O)O [Bortezomib] (partner 0.002 µM)

>  <RESULT>
1.02

$$$$
>  <COMPOUND>
Cc1cn(-c2cc(NC(=O)c3ccc(C)c(Nc4nccc(-c5cccnc5)n4)c3)cc(C(F)(F)F)c2)cn1 [Nilotinib] + CC(=O)c1c(C)c2cnc(Nc3ccc(N4CCNCC4)cn3)nc2n(C2CCCC2)c1=O [Palbociclib] (partner 0.5 µM)

>  <RESULT>
0.666

$$$$
>  <COMPOUND>
Cc1cn(-c2cc(NC(=O)c3ccc(C)c(Nc4nccc(-c5cccnc5)n4)c3)cc(C(F)(F)F)c2)cn1 [Nilotinib] + CC(=O)Nc1cccc(-n2c(=O)n(C3CC3)c(=O)c3c(Nc4ccc(I)cc4F)n(C)c(=O)c(C)c32)c1 [Trametinib] (partner 0.02 µM)

>  <RESULT>
0.708

$$$$
